Cited source: patent US20090012103A1

Target: wild-type human cardiac sodium channel, hNav1.5 (Homo sapiens, UniProt Q14524)
Sequence (Q14524 whole entry): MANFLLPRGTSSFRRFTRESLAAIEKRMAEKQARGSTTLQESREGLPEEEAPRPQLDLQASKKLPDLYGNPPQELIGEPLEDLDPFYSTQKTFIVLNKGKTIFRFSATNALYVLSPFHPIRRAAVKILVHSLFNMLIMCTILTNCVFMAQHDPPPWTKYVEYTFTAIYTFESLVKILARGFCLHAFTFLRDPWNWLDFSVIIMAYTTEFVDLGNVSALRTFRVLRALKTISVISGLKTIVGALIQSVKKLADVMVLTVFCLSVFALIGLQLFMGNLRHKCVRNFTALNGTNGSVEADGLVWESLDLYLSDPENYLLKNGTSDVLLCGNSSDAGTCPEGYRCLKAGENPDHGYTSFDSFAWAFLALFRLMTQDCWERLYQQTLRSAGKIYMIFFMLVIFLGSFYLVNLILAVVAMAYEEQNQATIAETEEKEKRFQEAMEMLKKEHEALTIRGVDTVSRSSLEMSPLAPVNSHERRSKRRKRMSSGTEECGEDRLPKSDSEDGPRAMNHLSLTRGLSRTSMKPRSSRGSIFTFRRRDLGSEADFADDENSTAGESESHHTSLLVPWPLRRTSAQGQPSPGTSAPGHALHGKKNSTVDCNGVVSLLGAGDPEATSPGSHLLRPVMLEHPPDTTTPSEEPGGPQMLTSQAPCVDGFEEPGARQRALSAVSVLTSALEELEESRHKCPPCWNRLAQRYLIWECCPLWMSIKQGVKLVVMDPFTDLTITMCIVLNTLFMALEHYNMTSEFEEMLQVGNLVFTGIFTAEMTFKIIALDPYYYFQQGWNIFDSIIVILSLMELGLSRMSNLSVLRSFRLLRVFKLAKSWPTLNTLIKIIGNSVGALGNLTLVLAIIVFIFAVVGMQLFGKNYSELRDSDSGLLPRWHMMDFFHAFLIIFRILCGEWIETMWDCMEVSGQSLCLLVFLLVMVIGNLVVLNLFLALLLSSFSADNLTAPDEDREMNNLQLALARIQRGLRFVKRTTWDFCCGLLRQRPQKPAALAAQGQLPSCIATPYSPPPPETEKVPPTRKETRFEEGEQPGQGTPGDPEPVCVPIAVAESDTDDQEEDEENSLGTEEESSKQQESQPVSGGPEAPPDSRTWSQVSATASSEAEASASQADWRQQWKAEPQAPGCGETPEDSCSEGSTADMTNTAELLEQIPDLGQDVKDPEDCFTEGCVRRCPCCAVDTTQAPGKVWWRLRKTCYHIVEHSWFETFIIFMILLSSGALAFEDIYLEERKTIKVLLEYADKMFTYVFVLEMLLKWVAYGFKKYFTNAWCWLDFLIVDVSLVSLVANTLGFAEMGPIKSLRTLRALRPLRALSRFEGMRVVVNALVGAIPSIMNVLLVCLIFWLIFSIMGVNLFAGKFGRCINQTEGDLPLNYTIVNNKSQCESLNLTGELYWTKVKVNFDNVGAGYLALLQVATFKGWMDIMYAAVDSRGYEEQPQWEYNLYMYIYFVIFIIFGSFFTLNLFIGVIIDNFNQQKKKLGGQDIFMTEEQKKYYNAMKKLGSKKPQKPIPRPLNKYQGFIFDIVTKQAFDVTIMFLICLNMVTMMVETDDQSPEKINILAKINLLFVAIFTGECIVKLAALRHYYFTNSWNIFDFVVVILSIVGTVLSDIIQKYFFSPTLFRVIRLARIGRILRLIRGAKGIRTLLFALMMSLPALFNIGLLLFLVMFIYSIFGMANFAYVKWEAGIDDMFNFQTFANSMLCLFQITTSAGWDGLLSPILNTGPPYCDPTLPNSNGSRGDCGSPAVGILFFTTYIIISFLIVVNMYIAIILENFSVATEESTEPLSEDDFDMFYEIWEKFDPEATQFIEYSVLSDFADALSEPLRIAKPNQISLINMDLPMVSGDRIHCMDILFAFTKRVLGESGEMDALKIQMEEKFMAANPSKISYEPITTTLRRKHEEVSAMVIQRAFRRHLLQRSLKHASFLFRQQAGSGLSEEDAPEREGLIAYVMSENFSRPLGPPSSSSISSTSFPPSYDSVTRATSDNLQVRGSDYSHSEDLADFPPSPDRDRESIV
Test: Peak INa screening assay (tonic block TB and use-dependent block UDB of peak sodium current)
Format: cell-based
Settings: tonic block; compound at 10 μM; read-out: Tonic Peak INa % blk
endpoint_label: inhibition at 10 µM

>>> df
                                   molecule       endpoint_label  observed
0  CC1=C(C(=O)OCc2ccccc2)C(c2ccc3ccccc3c2)C2=C(CCCC2=O)N1 (stereo not shown)  inhibition at 10 µM     16.7%
1  CCOC(=O)C1=C(C)NC2=C(C(=O)CCC2)C1c1ccco1 (stereo not shown)  inhibition at 10 µM      1.7%
2  CC1=C(C(=O)OC(C)C)C(c2ccc(Br)s2)C(C(=O)OC(C)C)=C(C)N1  inhibition at 10 µM     58.7%
3  CC1=C(C(=O)OC(C)C)C(c2ccc3ccccc3c2)C2=C(CCCC2=O)N1 (stereo not shown)  inhibition at 10 µM     15.3%
4  CC1=C(C(=O)OCc2ccccc2)C(c2cccc3ccccc23)n2nnnc2N1C (stereo not shown)  inhibition at 10 µM      1.7%
5  CCOC(=O)C1=C(C)NC(C)=C(C(=O)OCC)C1c1cc2ccccc2s1  inhibition at 10 µM     13.1%
6  CC1=C(c2nnc(Cc3ccccc3)o2)C(c2cccc3ccccc23)C2=C(CCCC2=O)N1 (stereo not shown)  inhibition at 10 µM     31.3%
7  CC1=C(C(=O)OC(C)C)C(c2cccc3ccccc23)C(C(=O)OC(C)C)=C(C)N1  inhibition at 10 µM        7%
8  CC1=C(C(=O)N2CCC(c3ccc(C(=O)O)cc3)CC2)C(c2cccc3ccccc23)C2=C(CCCC2=O)N1 (stereo not shown)  inhibition at 10 µM        0%
9  CCOC(=O)C1=C(CC)NC(CC)=C(C(=O)OCC)C1c1ccc(Br)s1  inhibition at 10 µM     76.5%

====

Biological target: UniProt Q14524
Test: Late INa screening assay (late sodium current, PatchXpress whole cell patch clamp)
Assay type: cell-based
Conditions: compound at 10 μM; read-out: Late INa % blk
I would appreciate it if you labelled entries true when inhibition at 10 µM is 40% or higher, otherwise false.

                                    compound  label
 0  CC1=C(c2nnc(Cc3ccccc3)o2)C(c2cccc3ccccc23)C2=C(CCCC2=O)N1 (stereo not drawn) [PT-276]   true
 1  CC1=C(C(=O)OCc2cccc(-c3ccccc3)c2)C(c2cccc3ccccc23)n2nnnc2N1 (stereo not drawn) [PT-006]  false
 2  CCOC(=O)C1=C(C)Nc2nnnn2C1c1c(Cl)cccc1Cl (stereo not drawn) [PT-486]  false
 3  CCOC(=O)C1=C(C)NC2=C(C(=O)CCC2(C)C)C1c1ccc(Cl)s1 (stereo not drawn) [PT-146]  false
 4  CC1=C(C(=O)OCc2ccccc2)C(c2ccc(Br)cc2F)n2nnnc2N1 (stereo not drawn) [PT-416]  false
 5  COc1cc(-c2nnn[nH]2)ccc1C1C(C(=O)OCc2ccccc2)=C(C)Nc2nnnn21 (stereo not drawn) [PT-393]  false
 6  CCOC(=O)C1=C(C)Nc2nnnn2C1c1ccccc1-n1ccnc1.Cl (stereo not drawn) [PT-476, hydrochloride]  false
 7  CC1=C(C(=O)OCc2ccccc2)C(c2cc(-c3ccsc3)cs2)n2nnnc2N1 (stereo not drawn) [PT-398]  false
 8  CC1=C(C(=O)OCc2ccc(-c3ccccc3)cc2)C(c2cccc3ccccc23)n2nnnc2N1 (stereo not drawn) [PT-004]  false
 9  N#CC1=C(N)OC2=C(C(=O)CC(c3ccccc3)C2)C1c1ccco1 (stereo not drawn) [PT-104]  false
10  CCOC(=O)C1=C(C)Nc2nnnn2C1c1cccc(OCc2cccc(C(=O)OC)c2)c1 (stereo not drawn) [PT-495]   true
11  O=C1OCc2nc3[nH]ncc3c(-c3cccc4ccccc34)c21 [PT-301]  false
12  COCCOC(=O)C1=C(C)NC2=C(C(=O)CC(C)(C)C2)C1c1ccc(Oc2ccccc2)cc1 (stereo not drawn) [PT-156]  false
13  CCOC(=O)C1=C(C)NC(C)=C(C(=O)OCC)C1c1ccc(N(C)C)cc1[N+](=O)[O-] [PT-437]   true
14  CC1=C(C(=O)OCc2ccccc2)[C@@H](c2ccccc2-c2ccc(C(N)=O)cc2)n2nnnc2N1 [PT-242]  false
15  CC1=C(C(=O)OCc2ccccc2)C(c2cccc3ccccc23)n2nnnc2N1 (stereo not drawn) [PT-027]   true
16  COc1cc(Cl)ccc1COC(=O)C1=C(C)Nc2nnnn2C1c1c(Cl)cccc1Cl (stereo not drawn) [PT-306]   true

====

Biological target: wild-type human cardiac sodium channel, hNav1.5 (Homo sapiens, UniProt Q14524)
Assay: Late INa screening assay (late sodium current, PatchXpress whole cell patch clamp)
Assay type: cell-based
Settings: compound at 10 μM; read-out: Late INa % blk
endpoint_label: inhibition at 10 µM (%)

In [3]: df
Out[3]:
                                    molecule       endpoint_label  observed
 0  CCOC(=O)C1=C(C)Nc2nnnn2C1c1ccccc1Oc1ccc(C(=O)O)cc1 (stereo not drawn)  inhibition at 10 µM      15.2
 1  CC1=C(C(=O)OC(C)C)C(c2ccc(Br)s2)C(C(=O)OC(C)C)=C(C)N1  inhibition at 10 µM      86.2
 2  COC(=O)C1=C(C)Nc2cc(C)nn2C1c1cccc2ccccc12 (stereo not drawn)  inhibition at 10 µM      11.6
 3  CCOC(=O)C1=C(C)Nc2ccnn2C1c1cccc(Oc2ccccc2)c1 (stereo not drawn)  inhibition at 10 µM      42.3
 4  CCOC(=O)C1=C(C)Nc2nnnn2C1c1ccccc1Oc1ccc(-c2nnn[nH]2)cc1 (stereo not drawn)  inhibition at 10 µM        18
 5  CC1=C(C(=O)OCc2ccccc2)C(c2ccc3ccccc3n2)n2nnnc2N1 (stereo not drawn)  inhibition at 10 µM      32.5
 6  CCOC(=O)c1ccc(COc2ccccc2C2C(C(=O)OCc3ccccc3)=C(C)Nc3nnnn32)cc1 (stereo not drawn)  inhibition at 10 µM      30.3
 7  CC1=C(C(=O)OC(C)C)C(c2cnn(-c3ccc(F)cc3)c2C)C(C(=O)OC(C)C)=C(C)N1  inhibition at 10 µM       1.1
 8  CC1=C(C(=O)OCc2ccccc2)C(c2cccc3ncccc23)n2nnnc2N1 (stereo not drawn)  inhibition at 10 µM      11.9
 9  CC1=C(C(=O)OCc2ccccc2)C(c2cccc3ccccc23)n2ncc(-c3ccccc3)c2N1 (stereo not drawn)  inhibition at 10 µM      14.4
10  CC1=C(C(=O)O[C@@H](C)c2ccccc2)[C@H](c2cccc3ccccc23)n2nnnc2N1  inhibition at 10 µM      35.4
11  CC1=C(C(=O)N2CCC(c3ccccc3)CC2)C(c2cccc3ccccc23)C2=C(CCCC2=O)N1 (stereo not drawn)  inhibition at 10 µM       9.8
12  CCOC(=O)C1=C(CC)NC2=C(C(=O)CCC2)C1c1ccc(OC)c2ccccc12 (stereo not drawn)  inhibition at 10 µM      45.2
13  CCOC(=O)C1=C(C)Nc2[nH]nc(C)c2C1c1cccs1 (stereo not drawn)  inhibition at 10 µM        20
14  CC1=C(C(=O)OCc2ccccc2)C(c2ccccc2OCc2ccccc2)C2=C(CCCC2=O)N1 (stereo not drawn)  inhibition at 10 µM      58.1
15  COc1cc([N+](=O)[O-])ccc1C1C(C(=O)OCc2ccccc2)=C(C)Nc2nnnn21 (stereo not drawn)  inhibition at 10 µM      48.7
16  CC1=C(C(=O)OC(c2ccccc2)C2CC2)C(c2cccc3ccccc23)n2nnnc2N1 (stereo not drawn)  inhibition at 10 µM      53.1
17  CC1=C(C(=O)OCc2cccc(-c3nnn[nH]3)c2)C(c2cccc3ccccc23)n2nnnc2N1 (stereo not drawn)  inhibition at 10 µM       5.8

====

The entries below are paired with their reported inhibition at 10 µM.
Target: wild-type human cardiac sodium channel, hNav1.5 (Homo sapiens)
Assay: Peak INa screening assay (tonic block TB and use-dependent block UDB of peak sodium current)
Assay type: cell-based
Conditions: tonic block; compound at 10 μM; read-out: Tonic Peak INa % blk
endpoint_label: inhibition at 10 µM (%)

>>> print(df.to_string())
                                   compound  observed
0  CCOC(=O)C1=C(C)Nc2nnnn2C1c1ccccc1I (centres unmarked)       0.3
1  COc1cc(Cl)ccc1COC(=O)C1=C(C)Nc2nnnn2C1c1c(C)cccc1C (centres unmarked)        14
2  CCOC(=O)C1=C(C)Nc2nnnn2C1c1cccc(Oc2ccccc2)c1 (centres unmarked)       2.7
3  CCOC(=O)C1=C(C)N(C)C(C)=C(C(=O)OCC)C1c1cccc2ccccc12         0
4  COc1cc([N+](=O)[O-])ccc1C1C(C(=O)OCc2ccccc2)=C(C)Nc2ccnn21 (centres unmarked)      15.4
